- tgt: T1, AFP158/HLA-A*02:01 complex (human)
- T1 construct: flowed over the chip in SPR; also called AFP158 pro
- method_description: SPR, KD ratio to AS170036 VL1VH1;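 note: crude scFv captured on a sensor chip, peptide–HLA complex passed over at several concentrations, association then buffer dissociation, KD derived from on- and off-rates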
Answer each item with its documented Affinity increase.
A number alone suffices; assume fold.

Please give the measured Affinity increase for this binder: LY34F (scFv, AS170036 VL1VH1 scFv mutein) scFv: QSALTQPRSVSGSPGQSVTISCAGTSSDVGSENFVSWYQQHPGKAPKLMIYQVNKRASGVPDRFSGSKSGNTASLTISGLQAEDEADYYCASYRSSDHNIVFGGGTKLTVLGGGGSGGGGSGGGGSEVQLVESGGGLVQPGGSLRLSCAASGFTFSSYAMSWVRQAPGKGLEWVSTINSGTGSPYYADSVKGRFTISRDNSKNTLYLQMNSLRAEDTAVYYCAKNFFDGSWFLGPPAMDYWGQGTLVTVSSHHHHHH
0.3

I would be grateful if you could share the reported Affinity increase for LD97G (scFv, AS170036 VL1VH1 scFv mutein) scFv: QSALTQPRSVSGSPGQSVTISCAGTSSDVGSENYVSWYQQHPGKAPKLMIYQVNKRASGVPDRFSGSKSGNTASLTISGLQAEDEADYYCASYRSSGHNIVFGGGTKLTVLGGGGSGGGGSGGGGSEVQLVESGGGLVQPGGSLRLSCAASGFTFSSYAMSWVRQAPGKGLEWVSTINSGTGSPYYADSVKGRFTISRDNSKNTLYLQMNSLRAEDTAVYYCAKNFFDGSWFLGPPAMDYWGQGTLVTVSSHHHHHH .
0.8
